tested on: KB; test: Cytotoxicity against human KB cell; format: functional, cell-based
MEASURED_PARAMETER: pIC50
Numbers only, as −log10 of the molar value.

For CCCCCCCCCCCCCCC[C@@H](O)[C@H](C)N on KB, measured pIC50 was 7.00

----------
system: DLD-1; test: Antiproliferative activity against human DLD-1 cells assessed as reduction in cell growth incubated for 48 hrs by SRB assay; type: functional, cell-based; conditions: DLD-1, 48 h
MEASURED_PARAMETER: IC50
A complete answer gives the number and then names the unit.

For CCCCCCCCCCCCCC[C@H](O)[C@@H](N)Cc1ccc(OC)cc1 on DLD-1, measured IC50 was 4.46 µM

----------
system: HT-29; experiment: Antiproliferative activity against human HT-29 cells assessed as reduction in cell growth at 10 uM incubated for 48 hrs by SRB assay relative to control; type: functional
Task for the reader: assign each of the following compounds its reported inhibition at 10 µM.
Numbers only, in %.

CCCCCCCCCCCCCC[C@H](OCOC)[C@H](CN(C(C)C)C(C)C)NC(=O)OC(C)(C)C :: 19.9
CC(C)(C)OC(=O)N[C@H](CO)CO[Si](c1ccccc1)(c1ccccc1)C(C)(C)C :: 46.2
COc1cccc2c1C(=O)c1c(O)c3c(c(O)c1C2=O)C[C@@](O)(C(=O)CO)C[C@@H]3O[C@H]1C[C@H](N)[C@H](O)[C@H](C)O1 :: 78.4
CCCCCCCCCCCCCC[C@H](O)[C@H](Cc1ccc(OC)cc1)NC(=O)OC(C)(C)C :: -7.41
CCCCCCCCCCCCCC[C@H](O)[C@H](CN(CCCC)CCCC)NC(=O)OC(C)(C)C :: 9.83

Can you give me inhibition at 10 µM for all of these, one by one?
1. CCCCCCCCCCCCCC[C@H](OCOC)[C@H](CO[Si](c1ccccc1)(c1ccccc1)C(C)(C)C)NC(=O)OC(C)(C)C
2. CCCCCCCCCCCCCC[C@H](OCOC)[C@H](CN1CCCCC1)NC(=O)OC(C)(C)C
3. CCCCCCCCCCCCCC[C@H](OCOC)[C@H](CN1CCSCC1)NC(=O)OC(C)(C)C

Out:
-18.8
14.2
8.57
